For each of the compounds below, state its Lipid peroxidation efficiency.
system: Salmonella typhimurium; assay: Bacterial lipid peroxidation; format: cell-based; settings: treated at the MIC level
One number for each entry, in %.

COc1ccc(C=NNC(=O)CSc2nc3c(C)cccc3c(=O)n2-c2ccccc2)cc1OS(C)(=O)=O [5g] ... 210.4
O=C(O)c1cn(C2CC2)c2cc(N3CCNCC3)c(F)cc2c1=O [Ciprofloxacin, reference compound] ... 294.8
CCS(=O)(=O)Oc1ccc(C=NNC(=O)CSc2nc3ccc(Cl)cc3c(=O)n2-c2ccccc2)cc1 [5k] ... 278.3

Okay, next one:
Reported Lipid peroxidation efficiency ( CCCS(=O)(=O)Oc1ccc(C=NNC(=O)CSc2nc3c(C)cccc3c(=O)n2-c2ccccc2)cc1OC [5f] ) = 273.1
